Experiment: clinical
Conditions: human, in vivo, 2.4 mg, Naltrexone ln(AUCinf), Geometric Mean, Least Squares Mean of log-transformed values
Where a name gives a salt, the structure may show the parent alone.
assay.metric: AUC(0-inf)

compound | measured
O=C1CC[C@@]2(O)[C@H]3Cc4ccc(O)c5c4[C@@]2(CCN3CC2CC2)[C@H]1O5 [Naltrexone HCl Solution] | 1.99 ng·h/mL

###

Assay: clinical
Conditions: human, in vivo, 2.4 mg
Counter-ions that a name gives are not always drawn.
assay.metric: concentration at 2 h (ng/mL)

molecule | measured
O=C1CC[C@@]2(O)[C@H]3Cc4ccc(O)c5c4[C@@]2(CCN3CC2CC2)[C@H]1O5 [Naltrexone HCl Solution] | 0.465

// provenance: patent US20140328930A1
